Tested on: biotinyl-Met-oxazolone
Test: self-aminoacylation, catalytic enhancement (BMO) (fold over background); higher = more active; k-Seq, kA / k0A0; sequences stand for … in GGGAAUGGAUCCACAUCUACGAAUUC…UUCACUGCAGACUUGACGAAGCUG
Variants at the floor of the assay were thinned out.
Hi, to clarify the labels: criterion met covers self-aminoacylation from 2 upward, criterion not met covers anything below 2.

Please review the entries below; each comes with its answer.
| Chain Sequence | Class Label |
| --- | --- |
| CUACUUCAAACAAUCGCGCUG [Fam1A.1 aminoacylation ribozyme variant] | criterion not met |
| AUUACCCUGGUCAUGGGGUGA [Fam2.1 aminoacylation ribozyme variant] | criterion met |
| CCAUACUUCAAGUAAUCGGUC [Fam1B.1 aminoacylation ribozyme variant] | criterion not met |
| GUACUUCAAACAAGCGGUCUG [Fam1A.1 aminoacylation ribozyme variant] | criterion not met |
| AUUACCCUGGUCAACGAGUUA [Fam2.1 aminoacylation ribozyme variant] | criterion not met |

Q: Does the sequence CCACAGUUCAAGAAAUCGGUC [Fam1B.1 aminoacylation ribozyme variant] have recorded self-aminoacylation that is 2 or more?
Ans: criterion not met

Q: Reported self-aminoacylation reaches at least 2 for CCAAACUUCAAGCAAUCGGAC [Fam1B.1 aminoacylation ribozyme variant] ?
Ans: criterion not met

Q: # bool: self-aminoacylation of CUACUUCAAUCAAUCGGUCUU [Fam1A.1 aminoacylation ribozyme variant] >= 2
Ans: criterion not met

Q: Would you say CCACGCUUCAAGCGAUCGGUC [Fam1B.1 aminoacylation ribozyme variant] shows self-aminoacylation at minimum 2?
Ans: criterion not met

###

Test system: biotinyl-Ile-oxazolone
Test: self-aminoacylation, catalytic enhancement (BIO) (fold over background); higher = more active; k-Seq, kA / k0A0; sequences stand for … in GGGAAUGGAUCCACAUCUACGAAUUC…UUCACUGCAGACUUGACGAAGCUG
Fewer inactive variants are shown than the library holds.
Would you please tag the item rule met when its self-aminoacylation is 0.9 or above, and rule not met when it is below?

Before answering, review these 3 worked examples.
| Chain Sequence | Target System | Class Label |
| --- | --- | --- |
| AUUCACCUAGGUCAUGGUGUG [Fam2.2 aminoacylation ribozyme variant] | biotinyl-Ile-oxazolone | rule met |
| CCACACUUCAUGCAAUAGGUC [Fam1B.1 aminoacylation ribozyme variant] | biotinyl-Ile-oxazolone | rule not met |
| AAGUUGGCUAAUAUUCGCAAG [Fam3.1 aminoacylation ribozyme variant] | biotinyl-Ile-oxazolone | rule met |

Q: Answer whether self-aminoacylation of AUUUACUUAGGUCAUCGGGUG [Fam2.2 aminoacylation ribozyme variant] is greater than or equal to 0.9.
Ans: rule met

Q: Identify whether the reported self-aminoacylation of the following sequence is 0.9 or greater: AGUCACCUAGGACAUCGGGUG [Fam2.2 aminoacylation ribozyme variant]
Ans: rule met

Q: // inclusive: self-aminoacylation at least 0.9? input: CUACUUCAAACAUUUGGUCUG [Fam1A.1 aminoacylation ribozyme variant]
Ans: rule met

Q: Check the entry AAGUUAGCUAAUGGUCGCAAG [Fam3.1 aminoacylation ribozyme variant] : does self-aminoacylation equal or exceed 0.9?
Ans: rule met

Q: Does the reported self-aminoacylation for UUUGACCUAGGUCAUCGGGUG [Fam2.2 aminoacylation ribozyme variant] fall at or above the 0.9 mark?
Ans: rule met

Q: Entry CCACACUUCAUGCAAACGGUC [Fam1B.1 aminoacylation ribozyme variant] : is its self-aminoacylation no less than 0.9?
Ans: rule not met

###

Parameter self-aminoacylation: see the listing below.
Tested on: biotinyl-Val-oxazolone
Assay: self-aminoacylation, catalytic enhancement (BVO) (fold over background); higher = more active; k-Seq, kA / k0A0; sequences stand for … in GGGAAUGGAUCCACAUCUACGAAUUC…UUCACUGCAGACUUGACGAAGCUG
Fewer inactive variants are shown than the library holds.

| Chain Sequence | self-aminoacylation |
| --- | --- |
| AUUUCCCUGGUAAUCGAGUGA [Fam2.1 aminoacylation ribozyme variant] | 4.01 |

Log: biotinyl-Val-oxazolone, sequence CUACACUUCAAGCAAUCGGUU [Fam1B.1 aminoacylation ribozyme variant] , self-aminoacylation = 1.27

Record for AAUUUUGCUAGUAGUCGCAAG [Fam3.1 aminoacylation ribozyme variant] under target or system biotinyl-Val-oxazolone: self-aminoacylation reported as 1.36

The sequence AUAACCCUGGUCAUUGAGUGA [Fam2.1 aminoacylation ribozyme variant] , when measured on biotinyl-Val-oxazolone, yielded self-aminoacylation of 3.82

AUUAACCUAGGGCAUCGGGUG [Fam2.2 aminoacylation ribozyme variant] on biotinyl-Val-oxazolone gives self-aminoacylation = 2.15

###

Test system: biotinyl-Val-oxazolone
Assay: self-aminoacylation, catalytic enhancement (BVO) (fold over background); higher = more active; k-Seq, kA / k0A0; sequences stand for … in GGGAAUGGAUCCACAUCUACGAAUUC…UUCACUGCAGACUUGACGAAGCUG
Fewer inactive variants are shown than the library holds.
Item-by-item account of self-aminoacylation
No unit in the answer, only the number.

These recorded examples may help you get a feel for the data.
| Chain Sequence | self-aminoacylation |
| --- | --- |
| AUUACCCUGGCCAUCGAGUUA [Fam2.1 aminoacylation ribozyme variant] | 1.12 |
| AUUCAUCUAGAUCAUCGGGUG [Fam2.2 aminoacylation ribozyme variant] | 2.14 |
| AACUUUGCUAAUAGUCGGAAG [Fam3.1 aminoacylation ribozyme variant] | 1.4 |
| AUUCACCUCGGUCAUCGGGUG [Fam2.2 aminoacylation ribozyme variant] | 5.15 |

Item: AUAGACCUAGGUCAUCGGGUG [Fam2.2 aminoacylation ribozyme variant] | self-aminoacylation: 2.65

The sequence listed as AUAACCCUGGUCCUCGAGUGA [Fam2.1 aminoacylation ribozyme variant] has a reported self-aminoacylation of 1.79

The sequence listed as CCACACAUCAAGCAAUAGGUC [Fam1B.1 aminoacylation ribozyme variant] shows self-aminoacylation equal to 1.02

response.value for AUCCACCUAGAUCAUCGGGUG [Fam2.2 aminoacylation ribozyme variant] (field: self-aminoacylation) = 3.26

###

System: biotinyl-Ile-oxazolone
Assay: self-aminoacylation, catalytic enhancement (BIO) (fold over background); higher = more active; k-Seq, kA / k0A0; sequences stand for … in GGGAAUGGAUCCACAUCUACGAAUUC…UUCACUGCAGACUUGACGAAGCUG
Fewer inactive variants are shown than the library holds.
Assay Endpoint: self-aminoacylation
// no unit string in output, number only

| Chain Sequence | Assay Endpoint | Observed Measurement |
| --- | --- | --- |
| CCACAAUUCAAGCAUUCGGUC [Fam1B.1 aminoacylation ribozyme variant] | self-aminoacylation | 1.96 |
| AAGUUUCCUAAUAGUAGCAAG [Fam3.1 aminoacylation ribozyme variant] | self-aminoacylation | 1.28 |
| AUUACCCUGGACAUAGAGUGA [Fam2.1 aminoacylation ribozyme variant] | self-aminoacylation | 6.45 |
| AUUACCCGGGUCCUCGAGUGA [Fam2.1 aminoacylation ribozyme variant] | self-aminoacylation | 3.5 |
| CUACUCCAAACCAUCGGUCUG [Fam1A.1 aminoacylation ribozyme variant] | self-aminoacylation | 1.1 |
| UCACACUUCAAGCAAUCGCUC [Fam1B.1 aminoacylation ribozyme variant] | self-aminoacylation | 1.43 |

biotinyl-Ile-oxazolone assay, sequence AUCCACCUAGGUCACCGGGUG [Fam2.2 aminoacylation ribozyme variant] , recorded self-aminoacylation = 4.14

biotinyl-Ile-oxazolone self-aminoacylation of AUUCGCCUAGGGCAUCGGGUG [Fam2.2 aminoacylation ribozyme variant] is 3.24

Hey, biotinyl-Ile-oxazolone data for CUACUACAAACAACCGGUCUG [Fam1A.1 aminoacylation ribozyme variant] : self-aminoacylation came out at 1.19

Kindly note: biotinyl-Ile-oxazolone, GUACUCCAAACAAUCGGUCUG [Fam1A.1 aminoacylation ribozyme variant] , self-aminoacylation value reported: 1.06

Record for AAGUUUGCCAAUAGGCGCAAG [Fam3.1 aminoacylation ribozyme variant] under target or system biotinyl-Ile-oxazolone: self-aminoacylation reported as 1.04

Record CUACUUCAAACAAUCGAUCAG [Fam1A.1 aminoacylation ribozyme variant] / biotinyl-Ile-oxazolone, self-aminoacylation recorded as 0.554

# AUUUCCCUGGUCAUCGAGAGA [Fam2.1 aminoacylation ribozyme variant] with biotinyl-Ile-oxazolone: self-aminoacylation is 1.2

# AAGUGUGCUAAUAAUCGCAAG [Fam3.1 aminoacylation ribozyme variant] with biotinyl-Ile-oxazolone: self-aminoacylation is 1.35

Simply: AUUCACCGAGAUCAUCGGGUG [Fam2.2 aminoacylation ribozyme variant] , biotinyl-Ile-oxazolone, self-aminoacylation = 3.88

Lab entry: biotinyl-Ile-oxazolone assay, sequence AUUCACCUAGGUCAUCGGGCC [Fam2.2 aminoacylation ribozyme variant] , self-aminoacylation = 2.73

Value (self-aminoacylation, biotinyl-Ile-oxazolone) for record CUAUUUCAAACAAUCCGUCUG [Fam1A.1 aminoacylation ribozyme variant] = 0.826

The sequence AUUACCCUAGUCAUCGAAUGA [Fam2.1 aminoacylation ribozyme variant] , when measured on biotinyl-Ile-oxazolone, yielded self-aminoacylation of 0.919

These data points were gathered from the supplement of paper PMC9233669.
